Just for reference, PubChem BioAssay (NCI) is where these values come from.

# System: MOLT-4 leukemia
# assay summary: NCI tumour cell line growth inhibition, 48 h; in the data active means GI50 below about 0.43 µM; inactive means the rest
Could you please pick one outcome from this set? label 1 = active, label 0 = inactive

Consider the worked cases shown below.
1) Cc1ccc(C2CC(c3cccc(Nc4ccncc4)c3)=NN2c2cc(Cl)cc(Cl)c2)cc1 (stereo unspecified): label 0
2) COC(=O)c1ccc2[nH]c(O)c(C(=Nc3ccc(N(C)C(=O)CN4CCN(C)CC4)cc3)c3cccc(OC)c3)c2c1: label 1

Task: Call for entry Cc1ccc2c(c1)C(=O)C(c1c(-c3[nH]c(=O)c4ccc(C)cc4c3O)c(O)c3ccccc3c1O)=NC2=O :
Output: label 0

Task: Same read-out for O=S(=O)(Nc1cccc(Cl)c1)c1ccc(-c2cnc(C3CC3)o2)cc1 ?
Output: label 0

Task: Likewise for COc1ccc2c(c1)C(=Nc1ccc(F)c(F)c1F)c1c-2c(Nc2ccc(F)c(F)c2F)nc2ccccc12 ?
Output: label 0

Task: What about this compound? CCOC(=O)c1cnc2c(C)cc(C)cc2c1NCCCN(C)C
Output: label 0
